# Tested on: Calu-3
# MEASUREMENT_PROTOCOL: cell viability relative to DMSO; higher = less toxic
# TEST_CONDITIONS: 72 h; 1 nM
MEASURED_ATTRIBUTE: cell viability

I would be grateful if you could share the reported cell viability for Cn1ncnc1[C@H]1c2n[nH]c(=O)c3cc(F)cc(c23)N[C@@H]1c1ccc(F)cc1 .
105%

I would be grateful if you could share the reported cell viability for CC[C@@H](C)c1ccc(NC(=O)Cn2cnc3c2c(=O)n(C)c(=O)n3C)cc1 (racemic) .
99.4%

I would be grateful if you could share the reported cell viability for O=C(O)c1cccnc1 .
86.8%
